# assay: Basal cytotoxicity test, Neutral Red Uptake (NRU) assay
# Format: cell-based
# conditions: mouse, po, acute oral LD50 calculated from 3T3 NRU IC50 by regression formula; read-out: Basal cytotoxicity Estimated* LD50
attribute-measured: LD50 at 24 h (mg/kg)
Please reply with the bare figure in mg/kg and do not write the unit itself.

Query: Name the reported LD50 at 24 h value associated with the compound CCCCCCCCOC(=O)c1cc2ccc3c(Br)c(C4=CCCCC4)[se]c3c2oc1=O [Compound I-16]
Result: 876

----------
# System: MCF-7 (human breast adenocarcinoma, estrogen-positive)
# assay: In vitro cytotoxicity, MTT test
# Type: cell-based
# conditions: MCF7, 72 h, read-out: Cytotoxicity IC50, MCF-7
attribute-measured: IC50 (µM)
Please reply with the bare figure in µM and do not write the unit itself.

>>> print(df.to_string())
                                   compound  unit_string  val
0  Cl.O=C(O)c1cc2ccc3c(Br)c(CN4CCOCC4)[se]c3c2oc1=O [Compound I-14, hydrochloride]           µM   95

Query: Name the reported IC50 value associated with the compound Cl.O=C(O)c1cc2ccc3c(Br)c(CN4CCCCC4)[se]c3c2oc1=O [Compound I-13, hydrochloride]
Result: 119

----------
# assay: Basal cytotoxicity test, Neutral Red Uptake (NRU) assay
# Assay type: cell-based
# conditions: normal mouse embryo fibroblasts; read-out: Cytotoxicity IC50, 3T3
attribute-measured: IC50 at 24 h (µM)
Please reply with the bare figure in µM and do not write the unit itself.

Worked set:
compound	unit-string	IC50 at 24 h
COC1(c2[se]c3c(ccc4cc(C(=O)N5CCOCC5)c(=O)oc43)c2Br)CCCCC1	µM	47
Cl.O=C(O)c1cc2ccc3c(Br)c(CN4CCCCC4)[se]c3c2oc1=O [Compound I-13, hydrochloride]	µM	197
COCCN(CCOC)C(=O)c1cc2ccc3c(Br)c(C4=CCCCC4)[se]c3c2oc1=O	µM	131
Cl.O=C(O)c1cc2ccc3c(Br)c(CN4CCOCC4)[se]c3c2oc1=O [Compound I-14, hydrochloride]	µM	43
O=C(c1cc2ccc3c(Br)c(C4=CCCCC4)[se]c3c2oc1=O)N1CCCCC1	µM	161
CN1CCN(Cc2[se]c3c(ccc4cc(C(=O)O)c(=O)oc43)c2Br)CC1.Cl [Compound I-15, hydrochloride]	µM	192

Query: Name the reported IC50 at 24 h value associated with the compound `COC(=O)c1cc2ccc3c(Br)c(CN4CCCCC4)[se]c3c2oc1=O`
Result: 54

Query: Name the reported IC50 at 24 h value associated with the compound `COC(=O)c1cc2ccc3c(Br)c(C4(OC)CCCCC4)[se]c3c2oc1=O`
Result: 198

Query: Name the reported IC50 at 24 h value associated with the compound `COC(=O)c1cc2ccc3c(Br)c(CN4CCOCC4)[se]c3c2oc1=O`
Result: 56

----------
# assay: Acute p.o. toxicity, Up-and-Down Procedure (OECD 425)
# conditions: mouse, in vivo, po; p.o. single dose, 6 weeks old male ICR mice
attribute-measured: LD50 at 2 weeks (mg/kg)
Please reply with the bare figure in mg/kg and do not write the unit itself.

Query: Name the reported LD50 at 2 weeks value associated with the compound `COC(=O)c1cc2ccc3c(Br)c(CN4CCN(C)CC4)[se]c3c2oc1=O`
Result: 891
